Test: qHTS of pediatric cancer cell lines to identify multiple opportunities for drug repurposing: Primary screen for SK-N-MC cells (AID 1347093);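 also: plate controls were DMSO neutral control for no effect and bortezomib for full effect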
Condition details: SK-N-MC viability, CellTiter-Glo luminescence, 48 h; series mostly up to 46 µM
Inconclusive results are not listed. Calls of active or inactive are those of the source. Calls follow the shape of the dose curve; as a rule, active = well fitted cell-killing curve with a large enough effect; inconclusive = small, poorly fitted or top-dose-only effect; inactive = no such curve, though single readings can be large or run the other way.
Use one of these outcomes when replying: active, inactive

Solved entries (count: 5):
Ask: How was Sc1ccccc1Cl classified in this test?
Result: inactive

Ask: How did this test come out for COP(=O)(OC)OC=C(Cl)Cl ?
Result: inactive

Ask: Dear colleague, could you share the recorded outcome for CC1=C2[C@H]3OC(=O)[C@@H](C)[C@@H]3CC[C@@]2(C)C=CC1=O when you have a moment?
Result: inactive

Ask: Which result was noted for this compound in the test: CC(C)(C)OC(=O)c1ncn2c1[C@@H]1CCCN1C(=O)c1c(Br)cccc1-2
Result: inactive

Ask: How did this test come out for ClC1=C(Cl)C2(Cl)C(CBr)CC1(Cl)C2(Cl)Cl (configuration not stated) ?
Result: inactive

New cases:
Ask: Dear colleague, could you share the recorded outcome for NC(=O)CN1CCCC1=O when you have a moment?
Result: inactive

Ask: Tell me the assay call for CC(C)(O)C(Cl)(Cl)Cl please.
Result: inactive

Ask: Write down the call the test reported for this compound. Item: CC(CC(C(N)=O)(c1ccccc1)c1ccccc1)N(C)C (configuration not stated)
Result: inactive

Ask: Dear all, I need the recorded test outcome for C[C@]12CC[C@H]3[C@@H](CC=C4C[C@@H](O)CC[C@@]43C)[C@@H]1CC[C@@H]2O , thank you.
Result: inactive

====

Test system: HaCat
Test: Cytotoxic Profiling of Annotated Libraries Using Quantitative High-Throughput Screening (AID 1296008); also: % is scaled to controls: 0 for no effect and ±100 for the full control effect; nearly all actives have a fitted effect of over 60% in size
Condition details: Five cell lines viability, CellTiter-Glo ATP luminescence, 48-72 h; stronger effect = lower value
Inconclusive results are not listed.
Catalogue of compounds with associated max response
# unit: % | format: bare number

Input CC(C)(C)OC(=O)c1ncn2c1[C@@H]1CCCN1C(=O)c1c(Br)cccc1-2 . Output max response: 3.04

max response for CCOC(=O)c1cncn1C(C)c1ccccc1 (configuration not stated) is -5.29

Note to self: max response recorded for C[C@]12C=CC(=O)C=C1CC[C@@H]1[C@@H]2CC[C@@]2(C)[C@H]1CC[C@]2(C)O was -43.5

max response reading for C[N+]1(C)[C@@H]2CC[C@H]1CC(OC(=O)C(CO)c1ccccc1)C2 (some centres not stated) : -1.21

Recorded result, NC1(c2ccccc2)CCCCC1 , max response: 1.23

New cases:
Please fill in: max response reported for CC(C)NCC(O)c1ccc(N)c(C#N)c1 (configuration not stated) = -0.104

Briefly, max response measured for C[C@@H]1CN(C2CCC(C#N)(c3ccc(F)cc3)CC2)CC[C@]1(C(=O)O)c1ccccc1 (some centres not stated) : 3.21

The recorded max response for CCCCCCCCC(=O)NCc1ccc(O)c(OC)c1 is -25.6

max response recorded for this compound, COP(=O)(OC)OC=C(Cl)Cl , is -7.81

GET /value?item= C[N+](C)(C)CCOC(=O)C(O)(c1ccccc1)c1ccccc1 &field=max response returns 1.68

What the record says about CCC(=O)OC1(c2ccccc2)CCN(C)CC1 : max response is -5.78

Quick note, max response for CCCOC(=O)Cc1ccc(OCC(=O)N(CC)CC)c(OC)c1 landed at -1.71
